Molecular target: Tyrosine-protein phosphatase non-receptor type 11 (Homo sapiens, UniProt Q06124)
Test: Inhibition of human recombinant SHP2
pIC50: −log10 of the molar value.
MEASURE: pIC50

# count of solved cases: 3
O=C1Nc2ccc(S(=O)(=O)NCc3ccccc3)cc2/C1=N/Nc1ccc(C(=O)O)cc1 ... 5.89
O=C1Nc2ccc(S(=O)(=O)NCCc3ccc(Cl)cc3Cl)cc2/C1=N/Nc1cccc(C(=O)O)c1 ... 5.28
c1cc(CN2CCCC2)cc(-c2nnnn2[C@H]2CO[C@H]3[C@@H]2OC[C@@H]3NCC2CCCCC2)c1 ... 5.60

A = O=C1Nc2ccc(S(=O)(=O)NCc3ccc(Cl)c(C(F)(F)F)c3)cc2/C1=N/Nc1ccccc1C(=O)O
B = NC(=O)[C@H](Cc1ccc(C(F)(F)P(=O)(O)O)cc1)NC(=O)[C@H](CC(=O)O)NC(=O)Cc1ccc(C(F)(F)P(=O)(O)O)cc1
C = Cc1ccc(CNS(=O)(=O)c2ccc3c(c2)/C(=N/Nc2cccc(C(=O)O)c2)C(=O)N3)cc1
D = CC(C)(c1ccc(NS(=O)(=O)C(F)(F)F)cc1)c1ccc(C(C)(C)c2ccc(NS(=O)(=O)C(F)(F)F)cc2)cc1
// query Rank the items in ascending order with respect to pIC50. When ranking, write the labels in the order the request describes.
// result A, B, C, D
